Provide the reported logP of each item.
Assay overview: log P by potentiometric titration octanol/water (Sirius T3); log D7.4 calculated from pKa and log P
Assay type: physicochemical
Provide a numeric answer; units are not to be included.

// query Check the records and state logP for CONC(=O)c1ccccc1NS(C)(=O)=O [Compound 16]
// result 0.12

// query Check the records and state logP for COC(=O)c1cccc2oc(=O)[nH]c12 [Compound 13]
// result 1.24

// query Check the records and state logP for O=C(O)c1ccccc1O [Compound 1, Salicylic acid, reference compound]
// result 2.18

// query Check the records and state logP for O=C(O)c1cccc2oc(=O)[nH]c12 [Compound 3]
// result 1.28

// query Check the records and state logP for CONC(=O)c1cccc2nc[nH]c12 [Compound 18]
// result 0.05

// query Check the records and state logP for CONC(=O)c1ccccc1O [Compound 7]
// result 0.85
